Molecular target: NADPH oxidase 5 (Homo sapiens)
Assay: NOX5-dependent H2O2 signal modulators, primary screen, NOX inhibitor project, cell-based, HEK293-NOX5, Amplex Red fluorescence (AID 1161)
Details: HEK293-NOX5, ionomycin, 45 min, higher = more signal
quantityKind: z-score
Numbers only.

I would be grateful if you could share the reported z-score for `[N-]=[N+]=NCc1ccccc1[C@H]1OC(c2ccc(OCCCO)cc2)=N[C@@]1(CCS(=O)(=O)c1ccccc1)C(=O)N1CCCCC1` .
1.63

Next compound up: O=C1C2C=CC(C(O)c3ccccc3)N(Nc3ccccc3F)C2C(=O)N1c1ccccc1 (centres undefined)
-2.26

Next compound up: `Cc1ccc(S[C@]2(C(=O)NCC(F)(F)F)CC(=O)N(Cc3ccccc3C(F)(F)F)[C@@H]2c2ccc(CO)cc2I)cc1`
1.94

Consider the record given below.
I would be grateful if you could share the reported z-score for CN1C(=O)C2C=CC(C(O)COCc3ccccc3)N(N(c3ccccc3)c3ccccc3)C2C1=O (centres undefined) .
0.262

----------
Target: Fibroblast growth factor 2 (Homo sapiens)
Assay: FGF2 binders on small-molecule microarrays, primary screen, biochemical, small-molecule microarray, 635/667 nm fluorescence (AID 1133)
Conditions: small-molecule microarray binding, FGF2, fluorescence 635/667; higher = more signal
Consider the following molecules; for each one, report its composite z-score.
Give bare numbers.

I would be grateful if you could share the reported composite z-score for [N-]=[N+]=Nc1ccccc1[C@@H]1OC(c2ccc(OCCCO)cc2)=N[C@]1(Cc1ccccc1)C(=O)NCC(O)CO (some centres not stated) .
1.06

Next molecule up: `CCCNC(=O)[C@@]1(c2ccc([N+](=O)[O-])cc2)CC(=O)N(C2CCCCC2)[C@@H]1c1ccc(CO)cc1`
1.66

Next molecule up: C=CCC(OC(C)=O)[C@@H]1[C@@H](N(Cc2cc3ccccc3o2)C(=O)c2ccc(-c3ccccc3)cc2)c2cc(OCCCO)ccc2N1C(=O)c1ccc2ccccc2c1 (some centres not stated)
-0.198

Next molecule up: O=C1OCCC/C=C\[C@H]2OC34C=CCN(CCN5CCOCC5)C(=O)[C@H]3N(CCCCCCO)C(=O)[C@@H]4C12 (some centres not stated)
-0.25

Next molecule up: Cc1ccccc1C(O)C1C=CC2C(=O)N(C)C(=O)C2N1N(c1ccccc1)c1ccccc1 (configuration not stated)
-0.0234

Next molecule up: `CC(C)N1C(=O)c2ccccc2[C@@H](C(=O)NC2CC2)[C@@H]1c1ccc(CO)cc1`
1.08

Consider the record given below.
I would be grateful if you could share the reported composite z-score for C=CCC(OC(C)=O)[C@@H]1[C@@H](N(Cc2cccc3ccccc23)C(=O)Cc2ccc(F)cc2)c2cc(OCCCO)ccc2N1C(=O)c1ccc2ccccc2n1 (some centres not stated) .
0.386

----------
Molecular target: Torsin-1A (Homo sapiens) (UniProt O14656)
Sequence (O14656 whole entry, looked up): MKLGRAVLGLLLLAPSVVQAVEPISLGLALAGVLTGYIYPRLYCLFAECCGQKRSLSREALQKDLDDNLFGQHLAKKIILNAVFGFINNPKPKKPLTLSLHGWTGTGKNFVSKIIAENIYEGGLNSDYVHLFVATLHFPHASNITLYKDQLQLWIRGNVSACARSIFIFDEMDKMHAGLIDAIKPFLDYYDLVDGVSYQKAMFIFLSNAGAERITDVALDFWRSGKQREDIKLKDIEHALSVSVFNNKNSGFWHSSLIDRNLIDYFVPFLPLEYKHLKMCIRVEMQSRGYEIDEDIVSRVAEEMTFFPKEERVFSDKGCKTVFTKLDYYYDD
Assay: torsin A binders from cell lysate, primary screen, small-molecule microarray, wild-type, 635/667 nm (AID 1149)
Conditions: COS7 hTOR1A-WT lysate, 635 nm fluorescence, higher = more signal
quantityKind: composite z-score
Answers are plain numbers.

Please review the entries below; each comes with its answer.
I would be grateful if you could share the reported composite z-score for `COCCOC(=O)N1C(=O)[C@@]2(c3cc(C#CCC(C(=O)OC)C(=O)OC)ccc31)[C@H](C(=O)N1CCc3cc(OC)c(OC)cc3C1)[C@H]1C(=O)O[C@H](c3ccccc3)[C@H](c3ccccc3)N1[C@@H]2c1ccc(OCCO)cc1` .
0.817

Next compound up: `CCCCC(=C=CC[C@@H](O)c1ccccc1OCCO)C[C@@H](O)COCc1ccccc1`
-0.745

Next compound up: `COCCOC(=O)N1C(=O)[C@@]2(c3cc(C#CC4=CCCCC4)ccc31)[C@H](c1ccc(OCCO)cc1)N1[C@H](c3ccccc3)[C@H](c3ccccc3)OC(=O)[C@H]1[C@@H]2C(=O)N1CCN(c2ncccn2)CC1`
0.767

Next compound up: `NC(=O)NCC#Cc1ccc2c(c1)[C@]1(C(=O)N2)[C@H](C(=O)NC[C@H](O)c2ccccc2)[C@H]2C(=O)O[C@H](c3ccccc3)[C@H](c3ccccc3)N2[C@@H]1c1ccc(OCCO)cc1`
-0.0075

Next compound up: C=CCC(OC(C)=O)[C@@H]1[C@@H](N(Cc2cccc3ccccc23)C(=O)Cc2ccc(OC)cc2)c2cc(OCCCO)ccc2N1C(=O)c1ccc2ccccc2n1 (stereo partly specified)
-0.512

Consider the record given below.
I would be grateful if you could share the reported composite z-score for [N-]=[N+]=NCc1ccccc1[C@H]1OC(c2ccc(OCCCO)cc2)=N[C@@]1(CCS(=O)(=O)c1ccccc1)C(=O)NCC(O)CO (stereo partly specified) .
0.662

----------
Consider the following compounds; for each one, report its composite z-score.
Assay: small-molecule microarray binders of probe aEGFR, primary screen, biochemical, biotinylated probe, 635/667 nm fluorescence (AID 1097);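 further: probe is a biotinylated anti-EGFR antibody binding compounds printed on slides; score combines fluorescence near 667 nm and signal to noise of each spot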
Settings: higher = more signal
One number for each entry.

Please review the entries below; each comes with its answer.
I would be grateful if you could share the reported composite z-score for `C=CCNC(=O)[C@H]1[C@@H]2C(=O)O[C@@H](c3ccccc3)[C@@H](c3ccccc3)N2[C@@H](c2ccc(O)cc2)[C@]12C(=O)N(C(=O)OCCOC)c1ccccc12` .
0.0798

Next compound up: `COCCCNC(=O)[C@@]1(Cc2ccccc2CN=[N+]=[N-])N=C(c2ccc(OCCCO)cc2)O[C@H]1c1ccccc1`
-0.0267

Next compound up: `COCCOC(=O)N1C(=O)[C@@]2(c3cc(C#CCC(C(=O)OC)C(=O)OC)ccc31)[C@H](C(=O)N1CCc3cc(OC)c(OC)cc3C1)[C@H]1C(=O)O[C@H](c3ccccc3)[C@H](c3ccccc3)N1[C@@H]2c1ccc(OCCO)cc1`
0.0961

Consider the record given below.
I would be grateful if you could share the reported composite z-score for `CC(=O)NCCCC[C@@H]1NC(=O)[C@@H]2C[C@H](C(=O)NCCCC[N+](C)(C)C)[C@H](c3ccc(O)cc3)N2C1=O` .
-0.0131

----------
Experiment: RPMI8226 myeloma cell viability, profiling panel, resazurin fluorescence, basal, 24 h, PK04 Diversity Set (AID 1180);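 further: RPMI8826 multiple myeloma cell line at 5000 cells per well; test concentration not given here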
Conditions: higher = more signal
Assign Condition met to entries whose z-score meets or exceeds -0.4; assign Condition not met to the rest.

Solved cases below.
Confirm if z-score reported for the compound `COc1ccc([Si](C)(C)[C@@H]2[C@@H](CC(=O)N(CCO)Cc3ccccc3)O[C@]3(C(=O)N(Cc4cccc(N5CCOC5=O)c4)c4ccccc43)[C@H]2C)cc1` is -0.4 or above.
Condition not met

Next compound up: C=CCC(OC(C)=O)[C@@H]1[C@@H](N(Cc2cccc3ccccc23)C(=O)Cc2ccc(OC)cc2)c2cc(OCCCO)ccc2N1C(=O)c1ccc2ccccc2n1 (stereo partly specified)
Condition met

Next compound up: `CCCC[C@@H]1C[C@H]1[C@@H](NC(=O)Cc1ccccc1)c1ccc(-c2ccccc2)cc1`
Condition not met

Next compound up: `CCOC(=O)C[C@H]1[C@H](OC(=O)c2ccccc2-c2ccccc2)[C@@H](NC(=O)c2ccc(-c3ccccc3)cc2)c2cc(OCCCO)ccc2N1C(=O)c1ccc2ccccc2n1`
Condition met

Shift focus to the following entry.
Confirm if z-score reported for the compound `C=CCNC(=O)[C@@H]1[C@H]2C(=O)O[C@H](c3ccccc3)[C@H](c3ccccc3)N2[C@H](c2ccc(O)cc2)[C@@]12C(=O)N(C(=O)OCCOC)c1ccc(C#CC3(O)CCCCCC3)cc12` is -0.4 or above.
Condition met

----------
Consider the following molecules; for each one, report its z-score.
Assay: basal RPMI8226 mitochondrial membrane potential changes, profiling panel, cell-based, JC-1 fluorescence, 24 h, 100 nL compound (AID 1169); further: test concentration not given here
Conditions: RPMI8226 myeloma, JC-1 mitochondrial potential fluorescence, higher = more signal
Numbers only.

I would be grateful if you could share the reported z-score for `COCCOC(=O)N1C(=O)[C@@]2(c3cc(C#CC4=CCCCC4)ccc31)[C@H](c1ccc(OCCO)cc1)N1[C@H](c3ccccc3)[C@H](c3ccccc3)OC(=O)[C@H]1[C@@H]2C(=O)NC[C@H](O)c1ccccc1` .
-0.784

Next molecule up: COc1cc(OC)c(C(O)C2C=CC3C(=O)N(C)C(=O)C3N2NC(=O)OC(C)(C)C)cc1Br (stereo unspecified)
0.0442

Next molecule up: `O=C1C[C@@](C(=O)NCCN2CCOCC2)(c2ccc([N+](=O)[O-])cc2)[C@@H](c2ccc(CO)cc2I)N1C1CCCCC1`
-0.444

Next molecule up: `CCOC(=O)C[C@H]1[C@H](OC(=O)c2cc3ccccc3oc2=O)[C@@H](NC(=O)c2ccc(-c3ccccc3)cc2)c2cc(OCCCO)ccc2N1C(=O)c1ccccc1`
-0.337

Next molecule up: `COc1ccc(NC(=O)O[C@H]2[C@H](OC(=O)Nc3ccccc3)[C@H](OC(=O)Nc3ccccc3)[C@@H](OC)O[C@@H]2CO)cc1`
-0.339

Consider the record given below.
I would be grateful if you could share the reported z-score for `Cc1ccc(S[C@]2(C(=O)O)CC(=O)N(Cc3cc(C(F)(F)F)cc(C(F)(F)F)c3)[C@@H]2c2ccc(CO)cc2)cc1` .
0.83
